Entry source: the supplement of paper PMC9170038

Test system: MS2 coat protein
Run Description: apparent KD of MS2 coat protein; designed switch direction (-1 OFF switch, 1 ON switch): -1; higher = weaker reporter binding
Reported Conditions: input ligand: microRNA oligo, concentration not stated
Endpoint Label: apparent KD of MS2 coat protein (nM)
One number for each entry, in nM.

A selection of reference data follows.
>  <Residue Sequence>
AUUGAUGUUGAGGAUAUGCUUUUAUUUAUAAUAGCAGAAGGCGAUACAUGAGGAUCACCCAUGUUCAUGGUAGU [JR_E6_Sub095] (Eterna round: R96, puzzle: Exclusion 6)

>  <apparent KD of MS2 coat protein, nM>
52.3

$$$$
>  <Residue Sequence>
UUAUAGUAUGUAGGAUAUCGGUCAGUUUCUGAUCGAGAAGGACAUGAGGAUCACCCAUGUAAGGCUACCGGUUUCUGGUGGCCU [JL ENG1 3.52] (Eterna round: R96, puzzle: Exclusion NG 1)

>  <apparent KD of MS2 coat protein, nM>
18.5

$$$$

// below: apparent KD of MS2 coat protein requested for another sequence
Challenge: Using the record for CCCGUCGAUGUAGGAUAUGCCCGGGUCUCCCGGGCAGAAGGACAUGAGGAUCACCCAUGUUCAUGAGGGUCGCCCAUGAAUGGG [Double but mutated MS2] (Eterna round: R96, puzzle: Exclusion NG 1) , report its apparent KD of MS2 coat protein.
Response given: 17
